Provenance of the data: ChEMBL document CHEMBL3297675

# ASSAY: Cytotoxicity against human Fa2N-4 cells assessed as growth inhibition at 5 uM after 24 hrs by MTT assay relative to control
# Type: cell-based
# SETTINGS: read-out: GI
EXPERIMENTAL_READOUT: inhibition at 24 h, 5 µM (%)
Numeric only. Scale: %

Noted for `O=C1C[C@](O)(C(Br)Br)C(Br)=C1Br` : its inhibition at 24 h, 5 µM reads 53
